Test: Plasma and brain concentrations of drugs at the end of the audiogenic seizure experiment (LC-MS)
Assay type: in vivo, mouse
Settings: DBA/2J, mouse, brain, oral, 100 mg/kg, analyte VPA; vehicle 3 h + VPA 100 mg/kg 1 h before stimulus, oral gavage; mean ± SEM; read-out: Brain concentration total
Procedure: Briefly, blood was sampled from the vena cava caudalis with a syringe pre-filled with EDTA (ethylenediamine tetraacetic acid) as anticoagulant and centrifuged to yield plasma (for 10 minutes, at 4° C. and 5000 rpm (rounds per minute)). Brain was sampled and homogenized into one volume of cold phosphate buffer (pH 7.4). Following extraction with methanol, concentrations of the compound in plasma and brain were determined using liquid chromatography coupled to mass spectrometry. […]
Metric: concentration at 1 h (ng/g)
# output: bare number, implied unit ng/g

// lookup concentration at 1 h for CCCC(CCC)C(=O)O
10100
